Each entry below lists one item and its recorded IC50 value.
# Tested on: HeLa cells
# Assay text: MTT cell viability assay, HeLa
# Format: cell-based, human
# Protocol conditions: Homo sapiens, HeLa; MTT, 48 h, mean ± SD, n = 3
Return type: number; implicit unit µM.

Known IC50 results, listed for orientation:
Molecule	IC50 (µM)
O=C(Cn1c(=O)n(CC(=O)NNC(=O)c2cc3cc(Br)ccc3oc2=O)c2cc(Cl)c(Cl)cc21)NNC(=O)c1cc2cc(Br)ccc2oc1=O [Compound 12c]	11.5
O=c1n(CN2CCN(c3ccc(Cl)cc3)CC2)c2cc(Cl)c(Cl)cc2n1CN1CCN(c2ccc(Cl)cc2)CC1 [Compound 9]	8.5
CCOC(=O)Cn1c(=O)n(CC(=O)OCC)c2cc(Cl)c(Cl)cc21 [Compound 2]	68.8

Missing value: IC50, HeLa cells, entry O=C(Cn1c(=O)n(CC(=O)N/N=C/c2cccs2)c2cc(Cl)c(Cl)cc21)N/N=C/c1cccs1 [Compound 5] . Fill in?
26.1

Write down the reported IC50 of O=C(Cn1c(=O)n(CC(=O)c2ccccc2)c2cc(Cl)c(Cl)cc21)c1ccccc1 [Compound 8] , test system: HeLa cells.
23.9

// lookup IC50 | system=HeLa cells | key= COc1cccc2cc(C(=O)NNC(=O)Cn3c(=O)n(CC(=O)NNC(=O)c4cc5cccc(OC)c5oc4=O)c4cc(Cl)c(Cl)cc43)c(=O)oc12 [Compound 12e]
54.3

Param readout = IC50; param system = HeLa cells; param query = COc1cccc2c1C(=O)c1c(O)c3c(c(O)c1C2=O)C[C@@](O)(C(=O)CO)C[C@@H]3O[C@H]1C[C@H](N)[C@H](O)[C@H](C)O1 [Doxorubicin, reference compound] ; response: value
3.4

// lookup IC50 | system=HeLa cells | key= O=c1[nH]c2cc(Cl)c(Cl)cc2[nH]1 [Compound 1]
31.6

* * *

# System: MCF-7 cells
# Assay text: MTT cell viability assay, MCF-7
# Type: cell-based, human
# Protocol conditions: Homo sapiens, MCF7; MTT, 48 h, mean ± SD, n = 3
Measured quantity: IC50
Record the result as a number with its unit.

Sample records with IC50:
Compound	IC50
CCN(CC)c1ccc2cc(C(=O)NNC(=O)Cn3c(=O)n(CC(=O)NNC(=O)c4cc5ccc(N(CC)CC)cc5oc4=O)c4cc(Cl)c(Cl)cc43)c(=O)oc2c1 [Compound 12f]	26.4 µM
O=c1n(Cc2nnc(S)o2)c2cc(Cl)c(Cl)cc2n1Cc1nnc(S)o1	19.1 µM
O=c1n(CN2CCN(c3ccc(Cl)cc3)CC2)c2cc(Cl)c(Cl)cc2n1CN1CCN(c2ccc(Cl)cc2)CC1	11.2 µM
O=c1[nH]c2cc(Cl)c(Cl)cc2[nH]1	41.3 µM
O=C(O)Cn1c(=O)n(CC(=O)O)c2cc(Cl)c(Cl)cc21	28.3 µM

What IC50 value was documented for this compound, O=C(Cn1c(=O)n(CC(=O)NNC(=O)c2cc3cc(Cl)ccc3oc2=O)c2cc(Cl)c(Cl)cc21)NNC(=O)c1cc2cc(Cl)ccc2oc1=O [Compound 12b] ?
25.8 µM

Value lookup for IC50; key = O=C(Cn1c(=O)n(CC(=O)c2ccccc2)c2cc(Cl)c(Cl)cc21)c1ccccc1
21.7 µM

* * *

# Test system: A549 cells
# Assay text: MTT cell viability assay, A549
# Format: cell-based, human
# Protocol conditions: Homo sapiens, A549; MTT, 48 h, mean ± SD, n = 3
We label by threshold. Values of IC50 strictly beneath 40 µM are criterion met. Values of 40 µM and up are criterion not met.

Solved entries:
Compound	Discrete label
NNC(=O)Cn1c(=O)n(CC(=O)NN)c2cc(Cl)c(Cl)cc21	criterion not met
O=C(O)Cn1c(=O)n(CC(=O)O)c2cc(Cl)c(Cl)cc21	criterion met
O=C(Cn1c(=O)n(CC(=O)NNC(=O)c2cc3cc(Cl)ccc3oc2=O)c2cc(Cl)c(Cl)cc21)NNC(=O)c1cc2cc(Cl)ccc2oc1=O [Compound 12b]	criterion met
O=C(Cn1c(=O)n(CC(=O)N/N=C/c2cccs2)c2cc(Cl)c(Cl)cc21)N/N=C/c1cccs1	criterion not met
O=C(Cn1c(=O)n(CC(=O)c2ccccc2)c2cc(Cl)c(Cl)cc21)c1ccccc1	criterion met

Turning now to a further record.
# strict comparison: is reported IC50 < 40 µM? input = O=C(Cn1c(=O)n(CC(=O)NNC(=O)c2cc3cc(Cl)cc(Cl)c3oc2=O)c2cc(Cl)c(Cl)cc21)NNC(=O)c1cc2cc(Cl)cc(Cl)c2oc1=O [Compound 12d]
criterion met

* * *

// values below are reported cells in G2/M phase
# Test system: A549 cells
# Assay text: Cell cycle analysis (PI staining, flow cytometry), A549
# Type: cell-based, human
# Protocol conditions: A549, IC50 concentration, 48 h, mean ± SEM, n = 3
# Method: Cell cycle distribution was assessed by propidium iodide (PI) staining and flow cytometry. HeLa, MCF-7, and A549 cells were seeded in 6-well plates at a density of 1 × 10^5 cells per well and allowed to attach overnight. […] The stained samples were analyzed using a Muse™ Cell Analyzer (Merck, Millipore, Germany) equipped with a 488 nm excitation laser and a 617 nm emission filter. […]
Numeric answer only, unit % assumed.

Solved cases below.
Compound	Measured quantity	Unit descriptor	Meas value
O=C(O)Cn1c(=O)n(CC(=O)O)c2cc(Cl)c(Cl)cc21 [Compound 6]	cells in G2/M phase	%	19.6
O=C(Cn1c(=O)n(CC(=O)NNC(=O)c2cc3cc(Br)ccc3oc2=O)c2cc(Cl)c(Cl)cc21)NNC(=O)c1cc2cc(Br)ccc2oc1=O [Compound 12c]	cells in G2/M phase	%	16.4

Looking for the measured cells in G2/M phase of O=C(Cn1c(=O)n(CC(=O)NNC(=O)c2cc3cc(Cl)cc(Cl)c3oc2=O)c2cc(Cl)c(Cl)cc21)NNC(=O)c1cc2cc(Cl)cc(Cl)c2oc1=O [Compound 12d] , can you help?
19.0
